Recorded IC50 values for a group of compounds are listed next.
# Tested on: A549/DDP
# experimental.protocol: MTT cell viability assay, A549/DDP
# Format: cell-based, human
# conditions: A549/DDP (DDP-resistant), 48 h
Record the value in µM, omitting the unit from your answer.

Sample records with IC50:
So what's the measured IC50 for this one? N.N.[Cl][Pt][Cl] [DDP, cisplatin]
151

So what's the measured IC50 for this one? N.N.O=C([O-])C1(C(=O)[O-])CCC1.[Pt+2]
300

Next compound, IC50 to be filled in.
So what's the measured IC50 for this one? CCN(CC)CCCCC1C(=O)[O][Pt][O]C1=O.N[C@@H]1CCCC[C@H]1N.O=P(O)(O)O
133

----------
# Tested on: HCC827
# experimental.protocol: MTT cell viability assay, HCC827
# Format: cell-based, human
# conditions: 48 h
property.measured: pIC50
Quick note: pIC50 values are minus log10 of concentrations in mol/L.

So what's the measured pIC50 for this one? N.N.O=C([O-])C1(C(=O)[O-])CCC1.[Pt+2]
3.48

So what's the measured pIC50 for this one? N.N.[Cl][Pt][Cl] [DDP, cisplatin]
4.83

Next molecule, pIC50 to be filled in.
So what's the measured pIC50 for this one? CCN(CC)CCCCC1C(=O)[O][Pt][O]C1=O.N[C@@H]1CCCC[C@H]1N.O=P(O)(O)O
4.60

----------
# Test system: H1299
# experimental.protocol: MTT cell viability assay, H1299
# Type: cell-based, human
# conditions: 48 h
property.measured: IC50 (µM)
Record the value in µM, omitting the unit from your answer.

So what's the measured IC50 for this one? CCN(CC)CCCCC1C(=O)[O][Pt][O]C1=O.N[C@@H]1CCCC[C@H]1N.O=P(O)(O)O
57.5

So what's the measured IC50 for this one? N.N.[Cl][Pt][Cl] [DDP, cisplatin]
18.7

So what's the measured IC50 for this one? N.N.O=C([O-])C1(C(=O)[O-])CCC1.[Pt+2]
274
